Where do these numbers come from? They come from ChEMBL document CHEMBL5042537.

- system-under-test: Metabotropic glutamate receptor 2 (Homo sapiens)
- Sequence (Q14416 whole entry): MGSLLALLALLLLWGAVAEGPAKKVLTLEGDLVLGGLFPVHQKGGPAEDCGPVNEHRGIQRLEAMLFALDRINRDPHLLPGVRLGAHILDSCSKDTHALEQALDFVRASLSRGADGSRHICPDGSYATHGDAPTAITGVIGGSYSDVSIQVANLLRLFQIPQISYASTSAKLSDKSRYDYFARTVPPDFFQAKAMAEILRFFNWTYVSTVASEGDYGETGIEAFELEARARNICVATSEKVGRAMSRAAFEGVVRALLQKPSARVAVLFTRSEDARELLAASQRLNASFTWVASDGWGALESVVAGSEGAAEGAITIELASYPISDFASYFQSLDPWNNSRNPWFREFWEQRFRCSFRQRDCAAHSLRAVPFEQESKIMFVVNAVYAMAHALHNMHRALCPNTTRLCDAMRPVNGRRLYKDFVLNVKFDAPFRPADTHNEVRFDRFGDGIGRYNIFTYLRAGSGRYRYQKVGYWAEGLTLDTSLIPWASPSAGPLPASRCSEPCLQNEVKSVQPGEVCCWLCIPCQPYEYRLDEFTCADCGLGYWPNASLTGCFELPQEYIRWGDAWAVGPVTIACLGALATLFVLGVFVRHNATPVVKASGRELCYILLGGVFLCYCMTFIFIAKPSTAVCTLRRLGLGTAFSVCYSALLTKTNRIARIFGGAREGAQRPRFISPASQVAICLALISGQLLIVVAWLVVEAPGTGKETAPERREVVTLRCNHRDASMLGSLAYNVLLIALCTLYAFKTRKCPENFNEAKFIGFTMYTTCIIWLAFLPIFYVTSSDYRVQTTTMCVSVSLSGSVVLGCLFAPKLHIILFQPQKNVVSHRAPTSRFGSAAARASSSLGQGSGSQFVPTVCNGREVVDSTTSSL
- protocol-description: Binding affinity to human recombinant mGlur2 assessed as inhibition constant by cAMP Glosensor assay
measured-attribute: pKi
Give bare numbers, as −log10 of the molar value.

Name the reported pKi value associated with the molecule CC1(C)CCc2c(-c3ccc(F)cc3F)cc(C(N)=O)nc2O1
7.23

----------
- protocol-description: Stability of the compound in rat plasma measured at 60 min
- Assay type: ADME, cell-free
- conditions-used: read-out: Stability
measured-attribute: remaining at 1 h (%)
Numbers only, in %.

COc1ccc(-c2cc(C(N)=O)nc3c2CCC(C)(C)O3)c(F)c1 | 94.5

Let us examine a further case.
// lookup remaining at 1 h for CC1(C)CCc2c(-c3ccc(F)cc3F)cc(C(N)=O)nc2O1
95.3
